Where do the numbers come from? From ChEMBL document CHEMBL4138178.

Test system: Pseudomonas aeruginosa
Assay: Antibacterial activity against Pseudomonas aeruginosa MTCC 25668 after 24 hrs by broth microdilution method
Assay type: functional
Details: MTCC 25668, 24 h
MEASURED_QUANTITY: MIC (mg/L)
Numbers only here, please. The scale is mg/L.

Known results for molecules:
- MOLECULE: "O=C(O)CC(c1c(O)c2ccccc2oc1=O)c1cc(=O)oc2c1ccc1ccccc12 (stereo not given)"
  READING: 6.25
- MOLECULE: "O=C1CC(c2cc(=O)oc3c2ccc2ccccc23)c2c(c3ccccc3oc2=O)O1 (stereo not given)"
  READING: 1.56
- MOLECULE: "COc1ccc2oc(=O)cc(C3CC(=O)Oc4c3c(=O)oc3ccccc43)c2c1 (stereo not given)"
  READING: 6.25

// returns reported MIC for input N#CC1=C(N)Oc2c(c(=O)oc3ccccc23)C1c1cc(=O)oc2c1ccc1ccccc12 (stereo not given)
25

// returns reported MIC for input CCOC(=O)C1=C(N)Oc2c(c(=O)oc3ccccc23)C1c1cc(=O)oc2ccc(OC)cc12 (stereo not given)
25

// returns reported MIC for input O=C1CC(c2cc(=O)oc3ccc(Cl)cc23)c2c(c3ccccc3oc2=O)O1 (stereo not given)
25

// returns reported MIC for input Cc1ccc2c(C3CC(=O)Oc4c3c(=O)oc3ccccc43)cc(=O)oc2c1 (stereo not given)
25

// returns reported MIC for input Cc1ccc2oc(=O)cc(C3C(C#N)=C(N)Oc4c3c(=O)oc3ccccc43)c2c1 (stereo not given)
25

// returns reported MIC for input O=C(O)CC(c1c(O)c2ccccc2oc1=O)c1cc(=O)oc2ccc(Cl)cc12 (stereo not given)
25

// returns reported MIC for input Cc1ccc2c(C(CC(=O)O)c3c(O)c4ccccc4oc3=O)cc(=O)oc2c1 (stereo not given)
6.25
